Read-out: Cytochrome P450 3A7 (Homo sapiens)
test_protocol: LTEA_HepaRG_CYP3A7: Life Technologies and Expression Analysis (LTEA) Assay for CYP3A7 using HepaRG (AID 2283492)
measurement_setup: mRNA level, 48 h; actives raise or lower the signal
Calls of active or inactive are those of the source. Rule for the calls: active = hit-call score of the fitted dose curve at least 0.9, where 1 is the maximum; inactive = score below 0.9.
Outcome field: choose from active, inactive

input: Call for entry CCOC(=O)CC(SP(=S)(OC)OC)C(=O)OCC (stereo not given) :
output: inactive

More entries:
input: Call for entry CNC(=S)S :
output: inactive

----------
Read-out: alkyl and aryl transferase (GSTA2), GSTA2 (gene 2939)
test_protocol: CLD_GSTA2_48hr: CellzDirect (CLD) Gene Expression Assay for alkyl and aryl transferase (GSTA2) at 48 hours (AID 2283708);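 note: active means mRNA induction above DMSO vehicle baseline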
Records with an inconclusive call do not appear. The source made the active and inactive calls. The calls were made as follows: active = hit-call score of the fitted dose curve at least 0.9, where 1 is the maximum; inconclusive = response in the unintended direction; inactive = score below 0.9.
Outcome field: choose from 1.0 = active, 0.0 = inactive

input: Call for entry COc1cnc(OC)n2nc(NS(=O)(=O)c3c(OCC(F)F)cccc3C(F)(F)F)nc12 :
output: 0.0

More entries:
input: Call for entry CCNc1nc(Cl)nc(NC(C)C)n1 :
output: 0.0

input: Call for entry Fc1ccc(Oc2ccnc3cc(Cl)cc(Cl)c23)cc1 :
output: 0.0

input: Call for entry COc1nc(C)nc(NC(=O)NS(=O)(=O)c2ccccc2Cl)n1 :
output: 0.0

input: Call for entry CN(C)C(=S)SSC(=S)N(C)C :
output: 0.0

input: Call for entry COP(=S)(OC)Oc1nc(Cl)c(Cl)cc1Cl :
output: 0.0

----------
Read-out: CD40, CD40 (gene 958)
test_protocol: BSK_SAg_CD40: BioMAP Diversity Plus: SAg Assay for CD40 Biomarker Activity (AID 2283088)
measurement_setup: primary human HUVEC with PBMC; actives raise or lower the signal
Active and inactive are the calls of the source. The calls were made as follows: active = hit-call score of the fitted dose curve at least 0.9, where 1 is the maximum; inactive = score below 0.9.
Outcome field: choose from active, inactive

# example entries with known answers
input: Call for entry COP(=S)(OC)Oc1nc(Cl)c(Cl)cc1Cl :
output: inactive

input: Call for entry CC(C)Oc1cc(-n2nc(C(C)(C)C)oc2=O)c(Cl)cc1Cl :
output: active

input: Call for entry CC(C)C1(C)N=C(c2nc3ccccc3cc2C(=O)O)NC1=O (stereo unspecified) :
output: active

input: Call for entry Oc1ccccc1-c1ccccc1 :
output: inactive

input: Call for entry CCc1nn(C)c(C(=O)NCc2ccc(C(C)(C)C)cc2)c1Cl :
output: active

Could you now consider this next molecule?
input: Call for entry COc1cnc(OC)n2nc(NS(=O)(=O)c3c(OCC(F)F)cccc3C(F)(F)F)nc12 :
output: inactive

----------
Read-out: Human Leukocyte Antigen - DR isotype (HLADR), HLA-DRA (gene 3122)
test_protocol: BSK_BE3C_HLADR: BioMAP Diversity Plus: BE3C Assay for Human Leukocyte Antigen - DR isotype (HLADR) Biomarker Activity (AID 2283032)
measurement_setup: primary human bronchial epithelial cells; actives raise or lower the signal
Active and inactive are the calls of the source. The calls were made as follows: active = hit-call score of the fitted dose curve at least 0.9, where 1 is the maximum; inactive = score below 0.9.
readout_label: AC50

Recorded AC50, per entry:
input: Give AC50 for the following compound: CCNc1nc(Cl)nc(NCC)n1
output: inactive

input: Give AC50 for the following compound: OC(c1ccc(Cl)cc1)(c1cncnc1)c1ccccc1Cl (stereo unspecified)
output: 25.9 µM (active)

input: Give AC50 for the following compound: COc1nc(NC(C)C)nc(NC(C)C)n1
output: inactive

input: Give AC50 for the following compound: CCc1nn(C)c(C(=O)NCc2ccc(C(C)(C)C)cc2)c1Cl
output: 18.3 µM (active)

input: Give AC50 for the following compound: CS/C(C)=N/OC(=O)N(C)SN(C)C(=O)O/N=C(\C)SC
output: 30.1 µM (active)

input: Give AC50 for the following compound: COP(N)(=O)SC (stereo unspecified)
output: 5.27 µM (active)

More entries:
input: Give AC50 for the following compound: O=C(Nc1ccccc1)Nc1ccnc(Cl)c1
output: 34.7 µM (active)

input: Give AC50 for the following compound: COc1cnc(OC)n2nc(NS(=O)(=O)c3c(OCC(F)F)cccc3C(F)(F)F)nc12
output: inactive

input: Give AC50 for the following compound: COc1ccc(C(c2ccc(OC)cc2)C(Cl)(Cl)Cl)cc1
output: 17.4 µM (active)

input: Give AC50 for the following compound: Cc1c(F)c(F)c(COC(=O)C2C(/C=C(\Cl)C(F)(F)F)C2(C)C)c(F)c1F (stereo unspecified)
output: inactive

input: Give AC50 for the following compound: COC(=O)c1ccccc1C(=O)OC
output: inactive

input: Give AC50 for the following compound: CN(C)C(=S)SSC(=S)N(C)C
output: 8.69 µM (active)

input: Give AC50 for the following compound: CCOP(=S)(OCC)SCn1c(=O)oc2cc(Cl)ccc21
output: inactive

input: Give AC50 for the following compound: CC(C)C1(C)N=C(c2nc3ccccc3cc2C(=O)O)NC1=O (stereo unspecified)
output: inactive

input: Give AC50 for the following compound: CO/C=C(/C(=O)OC)c1ccccc1Oc1cc(Oc2ccccc2C#N)ncn1
output: 16.5 µM (active) [middle of 4 runs]

input: Give AC50 for the following compound: COC(=O)N(OC)c1ccccc1COc1ccn(-c2ccc(Cl)cc2)n1
output: 3.97 µM (active)
